Molecular target: factor inhibiting HIF-1 (FIH-1), full-length (human, UniProt Q9NWT6 1-349)
Sequence (Q9NWT6 whole entry): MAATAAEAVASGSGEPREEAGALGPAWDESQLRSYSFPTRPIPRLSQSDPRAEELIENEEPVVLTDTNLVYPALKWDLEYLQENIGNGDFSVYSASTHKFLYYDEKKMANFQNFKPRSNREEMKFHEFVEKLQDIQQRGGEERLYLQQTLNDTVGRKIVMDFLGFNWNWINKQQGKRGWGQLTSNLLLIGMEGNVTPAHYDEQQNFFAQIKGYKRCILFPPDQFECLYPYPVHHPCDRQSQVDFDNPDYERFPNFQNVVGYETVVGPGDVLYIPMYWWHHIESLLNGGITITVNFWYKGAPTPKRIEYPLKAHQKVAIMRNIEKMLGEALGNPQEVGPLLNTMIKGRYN
Assay: ITC

{"binder": "Mint3NT, N-terminal fragment (1-214) of Mint3 (domain or fragment) MDFPTISRSPSGPPAMDLEGPRDILVPSEDLTPDSQWDPMPGGPGSLSRMELDESSLQELVQQFEALPGDLVGPSPGGAPCPLHIATGHGLASQEIADAHGLLSAEAGRDDLLGLLHCEECPPSQTGPEEPLEPAPRLLQPPEDPDEDSDSPEWVEGASAEQEGSRSSSSSPEPWLETVPLVTPEEPPAGAQSPETLASYPAPQEVPGPCDHED", "stoichiometry N": 0.48}

All values here come from paper doi:10.1101/2021.05.10.443412.
